- testedSystem: 17-beta-hydroxysteroid dehydrogenase 13 (Homo sapiens)
- Sequence (Q7Z5P4 whole entry): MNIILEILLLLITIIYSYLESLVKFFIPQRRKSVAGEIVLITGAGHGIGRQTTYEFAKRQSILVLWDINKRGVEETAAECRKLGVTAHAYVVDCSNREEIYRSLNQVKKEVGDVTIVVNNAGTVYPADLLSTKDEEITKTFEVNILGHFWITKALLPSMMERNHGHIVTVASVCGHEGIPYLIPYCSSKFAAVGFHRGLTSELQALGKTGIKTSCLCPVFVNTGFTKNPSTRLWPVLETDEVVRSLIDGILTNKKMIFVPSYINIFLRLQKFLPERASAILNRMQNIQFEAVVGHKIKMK
pIC50: −log10 of the molar value.
readoutLabel: pIC50

Sample answers from the record:
O=C(Nc1cccc2ncn(Cc3cccnc3C(F)(F)F)c(=O)c12)c1cc(Cl)c(O)c(Cl)c1; ≥ 7.00
O=C(Nc1ccc(F)c2ncn(Cc3ccccc3C(F)(F)F)c(=O)c12)c1cc(Cl)c(O)c(Cl)n1; ≥ 7.00
O=C(NCc1ccccc1OC(F)(F)F)C1CCCN1C(=O)c1cc(Cl)c(O)c(Cl)n1 (centres undefined); < 5.00
O=C(NCc1ccccc1OC(F)(F)F)C1CCCN1C(=O)c1cc(Cl)c(O)c(Cl)c1 (centres undefined); < 5.00
O=C(Nc1cccc2ncn(Cc3ccccc3C(F)(F)F)c(=O)c12)c1cc(Cl)c(O)c(Cl)n1; ≥ 7.00
O=C(Nc1cccc2ncn(Cc3ccccc3C(F)(F)F)c(=O)c12)c1cc(Cl)c(O)c(Cl)c1; ≥ 7.00
N#Cc1ccccc1Cn1cnc2cccc(NC(=O)c3cc(Cl)c(O)c(Cl)c3)c2c1=O; ≥ 7.00
O=C(Nc1cccc2ncn(Cc3ccccc3OC(F)(F)F)c(=O)c12)c1cc(Cl)c(O)c(Cl)c1; ≥ 7.00

Determine its reported pIC50: O=C(Nc1cccc2ncn(Cc3n[nH]c4ccccc34)c(=O)c12)c1cc(Cl)c(O)c(Cl)c1
≥ 7.00
